Hey, just so you know, these numbers are from patent US20200239543A1.

Known Kd of a selection of binders
Molecular target: T1, human CD47 (human, UniProt Q08722 19-139)
T1 construct: extracellular domain; also called CD47 ECD
T1 sequence (Q08722 19-139 limits assumed): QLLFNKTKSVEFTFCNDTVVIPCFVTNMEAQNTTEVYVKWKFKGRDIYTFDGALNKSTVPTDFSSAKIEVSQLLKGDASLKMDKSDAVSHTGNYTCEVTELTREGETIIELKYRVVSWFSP
Assay: SPR; protein made in E. coli
I only need the number, in nM, no unit after it.

binder | Kd / nM
SIRP-α D1 variant polypeptide of SEQ ID NO: 56 (receptor, engineered SIRP-α D1 domain) EEELQIIQPDKSVSVAAGESAILHCTVTSLFPVGPIQWFRGAGPARVLIYNQRQGPFPRVTTVSETTKRENMDFSISISNITPADAGTYYCIKFRKGSPDTEFKSGAGTELSVRAKPS | 0.2
SIRP-α D1 variant polypeptide of SEQ ID NO: 62 (receptor, engineered SIRP-α D1 domain) EEELQIIQPDKSVSVAAGESAILHCTITSLFPVGPIQWFRGAGPARVLIYNQRQGPFPRVTTVSESTKRENMDFSISISNITPADAGTYYCIKFRKGSPDTEFKSGAGTELSVRAKPS | 0.13

The record that follows has no Kd shown yet.
Entry under review: SIRP-α D1 variant polypeptide of SEQ ID NO: 63 (receptor, engineered SIRP-α D1 domain) EEELQIIQPDKSVSVAAGESAILHCTITSLFPVGPIQWFRGAGPARVLIYNQRQGPFPRVTTVSETTKRENMDFSISISNITPADAGTYYCVKFRKGSPDTEFKSGAGTELSVRAKPS . Reported Kd? 0.089
